biological target: Neuronal acetylcholine receptor; alpha9/alpha10 (Homo sapiens) (UniProt Q9UGM1+Q9GZZ6); test: Antagonist activity at alpha9/alpha10 nAChR expressed in Xenopus oocyte assessed as inhibition of ACh-gated current response at 100 nM by voltage clamp electrophysiology assay; type: functional; set-up: scale not given: the % may be the effect or the level left
Can you tell me Activity for the items I'm about to list?
Give bare numbers, in %.

The following compounds have reported results that may help.
test_smiles	quantity_measured	observed_result
Cc1cc[n+](CCCC#Cc2cc(C#CCCC[n+]3ccc(C)c(C)c3)cc(C#CCCC[n+]3ccc(C)c(C)c3)c2)cc1C	Activity	61.1
Cc1cc(C)c[n+](CCCCCc2cc(CCCCC[n+]3cc(C)cc(C)c3)c(CCCCC[n+]3cc(C)cc(C)c3)cc2CCCCC[n+]2cc(C)cc(C)c2)c1	Activity	0.6

Would you be so kind as to report Activity for each listed record?
1. CCCCc1ccc[n+](CCCC#Cc2cc(C#CCCC[n+]3cccc(CCCC)c3)cc(C#CCCC[n+]3cccc(CCCC)c3)c2)c1
2. Cc1cc(C)c[n+](CCCCCc2ccccc2CCCCC[n+]2cc(C)cc(C)c2)c1

Found:
1. 36.1
2. 124

Kindly give each listed record's Activity.
1. C(#Cc1cccc(C#CCCC[n+]2ccc3ccccc3c2)c1)CCC[n+]1ccc2ccccc2c1
2. C(#Cc1ccccc1C#CCCC[n+]1ccc2ccccc2c1)CCC[n+]1ccc2ccccc2c1
3. c1ccc2c[n+](CCCCCc3cc(CCCCC[n+]4ccc5ccccc5c4)c(CCCCC[n+]4ccc5ccccc5c4)cc3CCCCC[n+]3ccc4ccccc4c3)ccc2c1
4. Cc1cc[n+](CCCc2ccc(-c3ccc(CCC[n+]4ccc(C)c(C)c4)cc3)cc2)cc1C

Found:
[39.7, 28, 17.9, 89.3]

Parameter requested: Activity. Apply to each item below.
1. Cc1cc(C)c[n+](CCCC#Cc2cc(C#CCCC[n+]3cc(C)cc(C)c3)cc(C#CCCC[n+]3cc(C)cc(C)c3)c2)c1
2. C(#Cc1cc(C#CCCC[n+]2cccc(-c3ccccc3)c2)c(C#CCCC[n+]2cccc(-c3ccccc3)c2)cc1C#CCCC[n+]1cccc(-c2ccccc2)c1)CCC[n+]1cccc(-c2ccccc2)c1
3. C(#Cc1cccc(C#CCCC[n+]2cccc(-c3ccccc3)c2)c1)CCC[n+]1cccc(-c2ccccc2)c1
4. c1ccc2c(c1)ccc[n+]2CCCCCc1cc(CCCCC[n+]2cccc3ccccc32)cc(CCCCC[n+]2cccc3ccccc32)c1

Found:
66
0.3
23.2
15.9

Quick request: Activity for each listed item, please.
1. c1cc(CCCCC[n+]2cccc3ccccc32)cc(CCCCC[n+]2cccc3ccccc32)c1
2. c1ccc(-c2ccc[n+](CCCCCc3cc(CCCCC[n+]4cccc(-c5ccccc5)c4)c(CCCCC[n+]4cccc(-c5ccccc5)c4)cc3CCCCC[n+]3cccc(-c4ccccc4)c3)c2)cc1
3. Cc1cc[n+](CCCC#Cc2ccccc2C#CCCC[n+]2ccc(C)c(C)c2)cc1C

Found:
42.6
6.5
31.3

* * *

target: Neuronal acetylcholine receptor subunit alpha-7 (Homo sapiens); assay: Antagonist activity at alpha7 nAChR expressed in Xenopus oocyte assessed as inhibition of ACh-gated current by voltage clamp electrophysiology assay
Sequence (P36544 whole entry): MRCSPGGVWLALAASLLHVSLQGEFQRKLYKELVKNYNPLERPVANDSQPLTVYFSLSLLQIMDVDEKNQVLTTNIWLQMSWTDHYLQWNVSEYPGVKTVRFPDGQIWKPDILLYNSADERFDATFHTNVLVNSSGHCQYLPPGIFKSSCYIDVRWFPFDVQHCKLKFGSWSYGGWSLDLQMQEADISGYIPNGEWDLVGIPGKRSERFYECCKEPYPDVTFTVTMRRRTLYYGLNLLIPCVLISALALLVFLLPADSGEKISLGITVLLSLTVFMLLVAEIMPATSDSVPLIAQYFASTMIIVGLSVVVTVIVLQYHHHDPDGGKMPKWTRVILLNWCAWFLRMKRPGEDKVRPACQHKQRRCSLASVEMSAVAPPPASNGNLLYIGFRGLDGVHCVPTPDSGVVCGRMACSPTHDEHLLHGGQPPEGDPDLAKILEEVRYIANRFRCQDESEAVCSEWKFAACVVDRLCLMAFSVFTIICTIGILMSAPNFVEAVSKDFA
For each record, write down the corresponding IC50.
Give bare numbers, in nM.

test_smiles	value_unit	IC50
Cc1cc[n+](CC#Cc2ccc(-c3ccc(C#CC[n+]4ccc(C)c(C)c4)cc3)cc2)cc1C	nM	1190

We now examine a further molecule.
Item: c1ccc(-c2ccc[n+](CCCCCc3cc(CCCCC[n+]4cccc(-c5ccccc5)c4)c(CCCCC[n+]4cccc(-c5ccccc5)c4)cc3CCCCC[n+]3cccc(-c4ccccc4)c3)c2)cc1 | IC50: 99
